target: GSPT1 protein (Homo sapiens, UniProt P15170+Q96SW2); construct: endogenous in cells; host or cells: HL-60 cells; assay: GSPT1 degradation assay (western blot) in HL-60 cells; type: cell-based; settings: GSPT1 protein level, 0.1 μM compound, 2h incubation, western blot normalized to beta-Actin
Sequence (P15170 whole entry): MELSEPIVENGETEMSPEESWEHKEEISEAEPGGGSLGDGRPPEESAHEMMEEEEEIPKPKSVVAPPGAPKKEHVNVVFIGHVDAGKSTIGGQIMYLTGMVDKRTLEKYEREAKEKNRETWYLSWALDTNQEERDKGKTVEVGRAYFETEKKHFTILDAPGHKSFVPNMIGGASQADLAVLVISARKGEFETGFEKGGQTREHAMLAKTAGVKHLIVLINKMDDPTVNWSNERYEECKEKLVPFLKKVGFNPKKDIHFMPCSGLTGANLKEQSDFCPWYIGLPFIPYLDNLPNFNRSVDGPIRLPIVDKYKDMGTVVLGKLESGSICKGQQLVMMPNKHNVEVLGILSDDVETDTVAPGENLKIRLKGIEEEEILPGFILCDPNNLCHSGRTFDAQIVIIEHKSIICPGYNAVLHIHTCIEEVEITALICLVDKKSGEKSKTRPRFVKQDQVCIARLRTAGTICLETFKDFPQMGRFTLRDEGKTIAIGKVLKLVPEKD
Sequence (Q96SW2 whole entry): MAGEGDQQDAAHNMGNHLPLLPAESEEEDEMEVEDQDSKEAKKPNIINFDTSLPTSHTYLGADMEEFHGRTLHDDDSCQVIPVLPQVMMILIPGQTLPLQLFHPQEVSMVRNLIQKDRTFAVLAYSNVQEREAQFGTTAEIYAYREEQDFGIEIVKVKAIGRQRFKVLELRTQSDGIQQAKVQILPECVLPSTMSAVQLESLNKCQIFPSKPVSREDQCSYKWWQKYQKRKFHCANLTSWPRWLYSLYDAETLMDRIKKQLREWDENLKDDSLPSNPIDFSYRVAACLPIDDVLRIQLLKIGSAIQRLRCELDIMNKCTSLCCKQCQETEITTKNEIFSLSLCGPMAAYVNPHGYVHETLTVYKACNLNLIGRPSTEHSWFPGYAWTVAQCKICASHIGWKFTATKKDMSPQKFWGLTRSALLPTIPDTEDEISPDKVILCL
Sequence (Q16531 whole entry partner): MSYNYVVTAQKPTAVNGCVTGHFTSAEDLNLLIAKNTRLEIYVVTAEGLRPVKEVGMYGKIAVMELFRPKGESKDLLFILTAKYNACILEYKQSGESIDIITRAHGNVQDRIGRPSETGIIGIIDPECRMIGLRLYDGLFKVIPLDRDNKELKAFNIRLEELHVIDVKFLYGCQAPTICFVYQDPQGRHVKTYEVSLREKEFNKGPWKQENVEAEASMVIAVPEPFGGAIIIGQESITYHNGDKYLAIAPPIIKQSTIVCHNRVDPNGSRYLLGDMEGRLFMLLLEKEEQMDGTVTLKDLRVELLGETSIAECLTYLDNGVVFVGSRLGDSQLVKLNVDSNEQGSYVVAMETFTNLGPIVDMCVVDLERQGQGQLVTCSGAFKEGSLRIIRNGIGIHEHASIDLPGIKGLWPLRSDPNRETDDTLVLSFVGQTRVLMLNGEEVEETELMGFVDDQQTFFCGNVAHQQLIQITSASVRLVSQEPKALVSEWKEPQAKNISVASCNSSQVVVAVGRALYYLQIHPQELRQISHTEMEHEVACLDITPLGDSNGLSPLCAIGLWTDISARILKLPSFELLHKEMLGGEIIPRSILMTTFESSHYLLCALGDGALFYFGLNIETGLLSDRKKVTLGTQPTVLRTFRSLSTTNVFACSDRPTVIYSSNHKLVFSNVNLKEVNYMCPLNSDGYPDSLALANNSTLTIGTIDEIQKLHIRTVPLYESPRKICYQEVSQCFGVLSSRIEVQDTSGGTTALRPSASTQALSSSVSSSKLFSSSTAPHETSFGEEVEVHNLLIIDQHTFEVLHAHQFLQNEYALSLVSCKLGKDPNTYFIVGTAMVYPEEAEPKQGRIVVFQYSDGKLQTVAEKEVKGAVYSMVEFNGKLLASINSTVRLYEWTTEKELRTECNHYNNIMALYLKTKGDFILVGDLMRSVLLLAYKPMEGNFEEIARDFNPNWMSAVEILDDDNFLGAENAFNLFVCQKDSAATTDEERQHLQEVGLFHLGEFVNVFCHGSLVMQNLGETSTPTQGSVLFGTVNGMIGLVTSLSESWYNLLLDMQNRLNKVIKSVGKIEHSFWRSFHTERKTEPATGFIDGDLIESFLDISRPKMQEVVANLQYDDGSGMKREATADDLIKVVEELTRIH
Measurement Name: inhibition at 0.1 µM (%)

As a guide, the following entries are already answered.
- Compound: "CCNc1ccc(-c2cccc(N3CCCN(CC4CCN(c5ccc6c(c5)C(=O)N(C5CCC(=O)NC5=O)C6=O)CC4)C3=O)c2)c(Cl)c1 (stereo not drawn) [Compound 30]"
  Measurement Name: "inhibition at 0.1 µM"
  Recorded Value: 37
- Compound: "O=C1CCC(N2C(=O)c3ccc(N4CCC(CN5CCCN(C6CCCCC6)C5=O)CC4)cc3C2=O)C(=O)N1 (stereo not drawn) [Compound 5]"
  Measurement Name: "inhibition at 0.1 µM"
  Recorded Value: 17
- Compound: "O=C1CCC(N2C(=O)c3ccc(N4CC(CCN5CCCN(c6cccc(-c7ccn8ccnc8c7)c6)C5=O)C4)cc3C2=O)C(=O)N1 (stereo not drawn) [Compound 21]"
  Measurement Name: "inhibition at 0.1 µM"
  Recorded Value: 35
- Compound: "CCc1c(N)ccc(-c2cccc(N3CCCN(CC4CCN(c5ccc6c(c5)C(=O)N(C5CCC(=O)NC5=O)C6=O)CC4)C3=O)c2)c1Cl (stereo not drawn) [Compound 29]"
  Measurement Name: "inhibition at 0.1 µM"
  Recorded Value: 45

1: CCn1ncc2ccc(-c3cccc(N4CCCN(CC5CCN(c6ccc7c(c6)C(=O)N(C6CCC(=O)NC6=O)C7=O)CC5)C4=O)c3)c(Cl)c21 (stereo not drawn) [Compound 34]
2: O=C1CCC(N2C(=O)c3ccc(N4CC(CCN5CCCN(c6cccc(Br)c6)C5=O)C4)cc3C2=O)C(=O)N1 (stereo not drawn) [Compound 10]
**Query** Which value of inhibition at 0.1 µM is smaller, the one for 1 or the one for 2 ? // output: label of the selected item
**Result** 2
(2: 40%, 1: 58%)

Hello, the source for this data is patent US20260108521A1, in case you need it.
